Answer each item with its documented pIC50.
target: AMP deaminase (Arabidopsis thaliana, UniProt O80452, V211M)
Sequence (O80452 whole entry V211M): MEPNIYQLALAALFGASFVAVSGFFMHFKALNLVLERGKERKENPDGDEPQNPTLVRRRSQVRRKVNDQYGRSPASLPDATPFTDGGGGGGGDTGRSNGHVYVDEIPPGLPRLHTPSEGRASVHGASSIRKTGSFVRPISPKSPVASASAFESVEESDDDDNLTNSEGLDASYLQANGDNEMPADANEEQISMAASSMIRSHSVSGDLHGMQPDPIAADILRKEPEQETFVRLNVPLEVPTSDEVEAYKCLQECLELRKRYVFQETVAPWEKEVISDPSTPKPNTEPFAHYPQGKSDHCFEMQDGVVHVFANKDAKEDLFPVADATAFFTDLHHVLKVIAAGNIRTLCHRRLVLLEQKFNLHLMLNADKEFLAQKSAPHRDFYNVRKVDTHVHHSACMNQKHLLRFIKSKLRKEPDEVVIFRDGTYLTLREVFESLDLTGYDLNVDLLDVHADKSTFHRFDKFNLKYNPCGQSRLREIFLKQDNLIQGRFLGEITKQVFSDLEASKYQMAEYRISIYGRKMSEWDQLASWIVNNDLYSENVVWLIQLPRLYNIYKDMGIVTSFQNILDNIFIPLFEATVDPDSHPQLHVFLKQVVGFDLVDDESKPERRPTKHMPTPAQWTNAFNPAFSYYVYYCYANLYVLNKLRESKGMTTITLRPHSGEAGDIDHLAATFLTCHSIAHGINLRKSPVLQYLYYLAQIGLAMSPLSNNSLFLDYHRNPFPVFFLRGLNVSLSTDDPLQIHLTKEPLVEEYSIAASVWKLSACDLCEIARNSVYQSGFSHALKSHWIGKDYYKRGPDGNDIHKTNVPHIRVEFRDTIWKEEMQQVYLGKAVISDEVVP
assay remarks: Inhibition of Arabidopsis recombinant AMPD deltaV211M mutant expressed in Sf9 cells
One number for each entry, as −log10 of the molar value.

- smiles structure: "O=C(O)c1cc2c(c(CCc3cnc4cncnn34)c1)CCCC2"
  target: "AMP deaminase (Arabidopsis thaliana, UniProt O80452, V211M)"
  pIC50: 3.70

We now examine a further molecule.
Query pIC50 for O=C(O)c1cccc(CCc2cnc3cncnn23)c1
2.85

###

assay remarks: Inhibition of porcine heart AMPD3
Set-up: species or system Sus scrofa
experimental readout: Ki (µM)
Numbers only, in µM.

In one line, give reported Ki of the entry O=C(O)c1cccc(CCn2cnc3c2NC=NCC3O)c1 (stereo unspecified) .
0.51
